target: hCA I (Homo sapiens, UniProt P00915); construct: gene CA1; cytosolic isoform; experiment: stopped-flow CO2 hydrase assay; assay type: biochemical
Sequence (P00915 2-261): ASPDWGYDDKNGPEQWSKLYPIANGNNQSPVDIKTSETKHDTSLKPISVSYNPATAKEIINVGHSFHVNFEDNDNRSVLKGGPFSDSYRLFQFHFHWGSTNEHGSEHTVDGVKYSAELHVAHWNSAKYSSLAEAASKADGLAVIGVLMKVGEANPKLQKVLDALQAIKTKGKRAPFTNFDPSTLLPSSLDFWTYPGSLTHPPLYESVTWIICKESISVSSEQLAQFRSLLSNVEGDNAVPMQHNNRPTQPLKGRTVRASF
Binary call on Ki with cut-off 700 nM: strictly below means t, and equality or higher means f.

{"COMPOUND": "CC1=NN(C(=O)CNc2ccc(S(N)(=O)=O)cc2)C(c2ccccc2Cl)C1 (stereo not drawn)", "CLASS ASSIGNMENT": "f"}
{"COMPOUND": "NS(=O)(=O)c1ccc(NCC(=O)N/N=C/c2ccc(O)cc2)cc1", "CLASS ASSIGNMENT": "t"}
{"COMPOUND": "COc1cc(/C=N/NC(=O)CNc2ccc(S(N)(=O)=O)cc2)cc(OC)c1O", "CLASS ASSIGNMENT": "t"}
{"COMPOUND": "NS(=O)(=O)c1ccc(NCC(=O)N2N=C(c3ccc(Cl)cc3)CC2c2ccncc2)cc1 (stereo not drawn)", "CLASS ASSIGNMENT": "t"}

Ask: Quick check: does NS(=O)(=O)c1ccc(NCC(=O)N/N=C/c2ccccn2)cc1 have Ki under 700 nM?
Reply: t

Ask: Lab note: Ki threshold 700 nM. Does this compound come in strictly under it? CC1=NN(C(=O)CNc2ccc(S(N)(=O)=O)cc2)C(c2ccccc2)C1 (stereo not drawn)
Reply: f

Ask: Input CC1=NN(C(=O)CNc2ccc(S(N)(=O)=O)cc2)C(c2cccs2)C1 (stereo not drawn) ; condition: Ki strictly below 700 nM. Does it hold?
Reply: f

Ask: Regarding NS(=O)(=O)c1ccc(NCC(=O)N/N=C/c2ccccc2O)cc1 , kindly confirm whether its Ki is beneath 700 nM.
Reply: t

Ask: Is it true that Ki reported for COc1cccc(C=NNC(=O)CNc2ccc(S(N)(=O)=O)cc2)c1OC is less than 700 nM?
Reply: f

Ask: In plain terms, does COc1ccc(C2CC(C)=NN2C(=O)CNc2ccc(S(N)(=O)=O)cc2)cc1 (stereo not drawn) come in under 700 nM for Ki?
Reply: f

Ask: Does the reported Ki of NS(=O)(=O)c1ccc(NCC(=O)N2N=C(c3ccc(Cl)cc3)CC2c2ccc(F)cc2)cc1 (stereo not drawn) stay below 700 nM?
Reply: t

* * *

biological target: hCA I (Homo sapiens); construct: gene CA1; cytosolic isoform; test: stopped-flow CO2 hydrase assay; assay type: biochemical
Recorded measurements of Ki, one per entry
Answer format: numeric, nM implied, no suffix.

{"COMPOUND": "CC1=NN(C(=O)CNc2ccc(S(N)(=O)=O)cc2)C(c2ccc(C)cc2)C1 (centres unmarked) [5o]", "QUANTITY KIND": "Ki", "UNIT DESCRIPTOR": "nM", "NUMERIC RESULT": 898}
{"COMPOUND": "NS(=O)(=O)c1ccc(NCC(=O)N2N=C(c3ccc(Cl)cc3)CC2c2c[nH]c3ccccc23)cc1 (centres unmarked) [5k]", "QUANTITY KIND": "Ki", "UNIT DESCRIPTOR": "nM", "NUMERIC RESULT": 440}
{"COMPOUND": "NS(=O)(=O)c1ccc(NCC(=O)N/N=C/c2ccccc2)cc1 [6a]", "QUANTITY KIND": "Ki", "UNIT DESCRIPTOR": "nM", "NUMERIC RESULT": 220}
{"COMPOUND": "CC1=NN(C(=O)CNc2ccc(S(N)(=O)=O)cc2)C(c2ccc(F)cc2)C1 (centres unmarked) [5p]", "QUANTITY KIND": "Ki", "UNIT DESCRIPTOR": "nM", "NUMERIC RESULT": 665}

API: the following record is the query input.
Ask: Report Ki for CC1=NN(C(=O)CNc2ccc(S(N)(=O)=O)cc2)C(c2ccc(N(C)C)cc2)C1 (centres unmarked) [5t]
Reply: 842

* * *

target: hCA I (Homo sapiens, UniProt P00915); construct: gene CA1; cytosolic isoform; assay: stopped-flow CO2 hydrase assay; format: biochemical
Each record is given Satisfied if its reported Ki is strictly below 300 nM. Records at or above 300 nM are given Not satisfied.

Here's what some known entries look like.
{"MOLECULE": "Cc1ccc(C=NNC(=O)CNc2ccc(S(N)(=O)=O)cc2)cc1 [6b]", "TEST TARGET": "hCA I (Homo sapiens, UniProt P00915)", "CLASS ASSIGNMENT": "Satisfied"}
{"MOLECULE": "NS(=O)(=O)c1ccc(NCC(=O)N2N=C(c3ccc(Cl)cc3)CC2c2ccccc2Cl)cc1 (centres unmarked) [5f]", "TEST TARGET": "hCA I (Homo sapiens, UniProt P00915)", "CLASS ASSIGNMENT": "Not satisfied"}

Ask: Say whether its Ki is strictly beneath 300 nM. Entry: COc1ccc(C2CC(c3ccc(Cl)cc3)=NN2C(=O)CNc2ccc(S(N)(=O)=O)cc2)cc1OC (centres unmarked) [5h]
Reply: Satisfied

Ask: Confirm or reject: Ki of NS(=O)(=O)c1ccc(NCC(=O)N2N=C(c3ccc(Cl)cc3)CC2c2c3ccccc3cc3ccccc23)cc1 (centres unmarked) [5j] lies strictly below 300 nM
Reply: Satisfied

Ask: Does this molecule meet the criterion Ki < 300 nM? NS(=O)(=O)c1ccc(NCC(=O)N2N=C(c3ccc(Cl)cc3)CC2c2ccccc2O)cc1 (centres unmarked) [5g]
Reply: Satisfied

* * *

target: mtCA 3 (Mycobacterium tuberculosis, UniProt P96878); construct: beta-class carbonic anhydrase; assay: biochemical; design: stopped-flow CO2 hydration assay, phenol red absorbance at 557 nm, 15 min pre-incubation, Ki by Cheng-Prusoff
Sequence (P96878 entry or part of it): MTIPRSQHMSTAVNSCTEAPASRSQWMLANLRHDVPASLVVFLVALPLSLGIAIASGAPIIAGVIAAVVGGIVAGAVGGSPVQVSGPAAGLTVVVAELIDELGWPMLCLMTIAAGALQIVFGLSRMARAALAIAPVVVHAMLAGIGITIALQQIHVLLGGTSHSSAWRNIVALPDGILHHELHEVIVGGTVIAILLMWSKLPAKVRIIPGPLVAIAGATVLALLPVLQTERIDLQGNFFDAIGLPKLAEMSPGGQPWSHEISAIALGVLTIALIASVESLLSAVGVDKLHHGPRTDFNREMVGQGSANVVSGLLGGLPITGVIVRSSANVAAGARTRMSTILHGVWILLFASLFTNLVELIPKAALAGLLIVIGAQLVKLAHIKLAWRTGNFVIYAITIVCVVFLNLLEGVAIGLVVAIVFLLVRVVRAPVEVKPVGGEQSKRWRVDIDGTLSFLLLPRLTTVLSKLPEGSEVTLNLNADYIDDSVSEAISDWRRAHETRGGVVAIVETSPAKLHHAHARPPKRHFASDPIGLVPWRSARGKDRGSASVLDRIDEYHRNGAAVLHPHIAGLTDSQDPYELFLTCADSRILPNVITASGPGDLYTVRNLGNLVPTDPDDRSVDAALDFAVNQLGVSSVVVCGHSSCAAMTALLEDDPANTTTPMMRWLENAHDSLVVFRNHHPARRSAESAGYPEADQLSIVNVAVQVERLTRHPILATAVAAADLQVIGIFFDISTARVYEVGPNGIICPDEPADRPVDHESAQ
# note: boundary value 600 nM maps to not satisfied; Ki below it maps to satisfied

# example entries with known answers
{"COMPOUND": "CC1=NN(C(=O)CNc2ccc(S(N)(=O)=O)cc2)C(c2ccccc2O)C1 (stereo not shown)", "TEST TARGET": "mtCA 3 (Mycobacterium tuberculosis, UniProt P96878)", "CLASS ASSIGNMENT": "not satisfied"}
{"COMPOUND": "CC1=NN(C(=O)CNc2ccc(S(N)(=O)=O)cc2)C(c2ccc(O)cc2)C1 (stereo not shown)", "TEST TARGET": "mtCA 3 (Mycobacterium tuberculosis, UniProt P96878)", "CLASS ASSIGNMENT": "satisfied"}

Ask: Lab note: Ki threshold 600 nM. Does this compound come in strictly under it? COc1ccc(C2CC(C)=NN2C(=O)CNc2ccc(S(N)(=O)=O)cc2)cc1 (stereo not shown)
Reply: not satisfied

Ask: For COc1cccc(C=NNC(=O)CNc2ccc(S(N)(=O)=O)cc2)c1OC , is the recorded Ki below the cut-off of 600 nM?
Reply: satisfied

Ask: Quick check: Ki of CC1=NN(C(=O)CNc2ccc(S(N)(=O)=O)cc2)C(c2ccc(N(C)C)cc2)C1 (stereo not shown) under 600 nM?
Reply: not satisfied

Ask: Is the reported Ki for NS(=O)(=O)c1ccc(NCC(=O)N/N=C/c2ccccn2)cc1 strictly below 600 nM?
Reply: not satisfied

Ask: Input COc1ccc(/C=N/NC(=O)CNc2ccc(S(N)(=O)=O)cc2)cc1 ; condition: Ki strictly below 600 nM. Does it hold?
Reply: not satisfied

Ask: hey, is Ki for NS(=O)(=O)c1ccc(NCC(=O)N2N=C(c3ccc(Cl)cc3)CC2c2ccncc2)cc1 (stereo not shown) lower than 600 nM or not?
Reply: satisfied

Ask: Please state whether Ki is below 600 nM for NS(=O)(=O)c1ccc(NCC(=O)N2N=C(c3ccc(Cl)cc3)CC2c2ccc(Br)cc2)cc1 (stereo not shown)
Reply: not satisfied

* * *

Quick list: log10(Ki) per entry.
Target: hCA I (Homo sapiens, UniProt P00915)
Construct: gene CA1; cytosolic isoform
Assay: stopped-flow CO2 hydrase assay
Type: biochemical
Excerpt: stopped-flow CO2 hydrase assay on hCA I
Could you please treat all values as log10 of Ki in nM?

Sample records with log10(Ki):
{"COMPOUND": "COc1ccc(/C=N/NC(=O)CNc2ccc(S(N)(=O)=O)cc2)cc1", "log10(Ki)": 2.81}
{"COMPOUND": "NS(=O)(=O)c1ccc(NCC(=O)N2N=C(c3ccc(Cl)cc3)CC2c2ccccc2)cc1 (stereo not drawn)", "log10(Ki)": 2.49}
{"COMPOUND": "Cc1ccc(C2CC(c3ccc(Cl)cc3)=NN2C(=O)CNc2ccc(S(N)(=O)=O)cc2)cc1 (stereo not drawn)", "log10(Ki)": 1.97}
{"COMPOUND": "CC1=NN(C(=O)CNc2ccc(S(N)(=O)=O)cc2)C(c2ccc(O)cc2)C1 (stereo not drawn)", "log10(Ki)": 2.87}

Ask: Please report the measured log10(Ki) for COc1ccc(/C=N/NC(=O)CNc2ccc(S(N)(=O)=O)cc2)cc1OC
Reply: 3.26

Ask: Provide measured log10(Ki) value, entry: CC1=NN(C(=O)CNc2ccc(S(N)(=O)=O)cc2)C(c2ccc(Cl)cc2)C1 (stereo not drawn)
Reply: 2.92

Ask: Respond only with log10(Ki) recorded for NS(=O)(=O)c1ccc(NCC(=O)N2N=C(c3ccc(Cl)cc3)CC2c2ccc(Br)cc2)cc1 (stereo not drawn)
Reply: 2.80

Ask: For the compound NS(=O)(=O)c1ccc(NCC(=O)N2N=C(c3ccc(Cl)cc3)CC2c2cccs2)cc1 (stereo not drawn) , give its measured log10(Ki) value.
Reply: 2.44

Ask: Note log10(Ki) for the compound shown: COc1cc(/C=N/NC(=O)CNc2ccc(S(N)(=O)=O)cc2)cc(OC)c1OC
Reply: 2.95
